Recorded pIC50 for the following compounds
# System Name: recombinant protein Wee-1 (Homo sapiens (Human), UniProt P30291)
# Sequence (P30291 whole entry): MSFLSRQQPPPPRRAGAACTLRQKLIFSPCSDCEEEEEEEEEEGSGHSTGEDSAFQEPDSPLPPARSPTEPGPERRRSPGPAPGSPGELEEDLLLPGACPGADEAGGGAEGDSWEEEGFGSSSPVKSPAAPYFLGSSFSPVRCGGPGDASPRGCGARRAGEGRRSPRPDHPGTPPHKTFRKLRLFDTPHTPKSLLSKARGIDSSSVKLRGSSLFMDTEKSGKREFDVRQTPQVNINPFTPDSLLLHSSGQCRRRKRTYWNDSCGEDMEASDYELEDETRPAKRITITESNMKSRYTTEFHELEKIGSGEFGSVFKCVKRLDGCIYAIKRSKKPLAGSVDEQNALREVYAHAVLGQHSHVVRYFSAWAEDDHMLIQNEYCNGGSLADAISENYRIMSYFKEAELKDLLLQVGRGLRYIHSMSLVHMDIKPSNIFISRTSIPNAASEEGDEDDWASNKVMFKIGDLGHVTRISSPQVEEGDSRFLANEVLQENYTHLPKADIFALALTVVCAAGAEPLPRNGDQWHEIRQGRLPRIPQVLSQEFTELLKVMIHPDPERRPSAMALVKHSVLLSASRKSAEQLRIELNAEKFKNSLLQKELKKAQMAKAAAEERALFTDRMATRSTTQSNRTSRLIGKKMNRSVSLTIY
# Run Description: HTRF assay for inhibiting enzymatic activity of recombinant protein Wee-1
# Condition Summary: compounds up to 200 nM, read-out: (IC50) Inhibitory activity against recombinant protein Wee-1
pIC50: −log10 of the molar value.
Value Type: pIC50

>>> value("CN1CCc2c(cc(Nc3ncc(C#N)c(Nc4cccc(N=S(C)(C)=O)n4)n3)cc2-c2ccccc2)C1")
"≥ 8.00"
>>> value("CN1CCc2ccc(Nc3ncc(C#N)c(-n4ccc5c(N=S(C)(C)=O)cccc54)n3)cc2C1")
"≥ 8.00"
>>> value("CNC(=O)c1cnc(Nc2ccc3c(c2)CN(C)CC3)nc1Nc1cccc(N=S(C)(C)=O)n1")
"< 7.30"
>>> value("CCc1cc(Nc2ncc(C#N)c(Nc3cccc(N=S(C)(C)=O)n3)n2)cc2c1C(C)(C)CN(C)C2")
"≥ 8.00"
>>> value("CN1CCc2c(cc(Nc3ncc(C#N)c(Nc4cccc(N=S(C)(C)=O)n4)n3)cc2C2CCCC2)C1")
"≥ 8.00"
>>> value("CCc1cc(Nc2ncc(C#N)c(Nc3cccc(N=S4(=O)CCC4)n3)n2)cc2c1CCN(C)C2")
"≥ 8.00"
>>> value("Cc1cc(Nc2ncc(C#N)c(Nc3cccc(N=S(C)(C)=O)n3)n2)cc2c1C(C)(C)CN(C)C2")
"≥ 8.00"
>>> value("CN1CCc2c(cc(Nc3ncc(C#N)c(Nc4cccc(N=S(C)(C)=O)n4)n3)cc2CN2CCOCC2)C1")
"≥ 8.00"
>>> value("CN1CCc2c(cc(Nc3ncc(C#N)c(Nc4ccc(F)c(N=S(C)(C)=O)n4)n3)cc2C2(C)CC2)C1")
"≥ 8.00"
>>> value("CN1CCc2ccc(Nc3ncc(P(C)(C)=O)c(Nc4cccc(N=S(C)(C)=O)n4)n3)cc2C1")
"< 7.30"
>>> value("C=C(C)c1cc(Nc2ncc(C#N)c(Nc3cccc(N=S(C)(C)=O)n3)n2)cc2c1CCN(C)C2")
"≥ 8.00"
>>> value("CN1CCc2c(cc(Nc3ncc(C#N)c(Nc4cccc(N=S(C)(C)=O)n4)n3)cc2-c2ccncc2)C1")
"≥ 8.00"
>>> value("CN(C)C1CCc2ccc(Nc3ncc(C#N)c(Nc4cccc(N=S(C)(C)=O)n4)n3)cc2CC1 (stereo not drawn)")
"≥ 8.00"
>>> value("CN1CCc2ccc(Nc3ncc(C#N)c(-c4c[nH]c5c(N=S(C)(C)=O)cccc45)n3)cc2C1")
"≥ 8.00"
>>> value("Cc1cc(Nc2ncc(C#N)c(Nc3cccc(N=S(C)(C)=O)n3)n2)cc(C2CC2)c1N1CCN(C)CC1")
"≥ 8.00"

* * *

Recorded IC50 for the following molecules
# Tested on: MIA PaCa-2 cells
# Run Description: In-vitro anti-proliferative activity on MIA PaCa-2 cells (intracellular ATP content, 72 h)
# Assay type: cell-based
# Condition Summary: Homo sapiens, compound alone, read-out: IC50 (nM) antiproliferative activity against MIA PaCa-2 cells
Value Type: IC50 (nM)

>>> value("CN1CCc2ccc(Nc3ncc(C(F)(F)F)c(Nc4cccc(N=S(C)(C)=O)n4)n3)cc2C1")
398
>>> value("CN1CCc2ccc(Nc3ncc(C4CC4)c(Nc4cccc(N=S(C)(C)=O)n4)n3)cc2C1")
879
>>> value("CN1CCc2ccc(Nc3ncc(C#N)c(Nc4cccc(N=S(C)(C)=O)n4)n3)cc2C1")
735
